system: B16F10.9 cells (MSR1 negative); test: Flow cytometry binding, MSR1 negative cells; assay type: cell-based, mouse; details: 10 μg/mL antibody
Each entry below carries its recorded B16F10.9 MFI.
Lab note: record the figure alone, no unit after it.

Molecule: H1H27731P-N297Q: one of "Twelve anti-MSR1 antibodies"; "made with an N297Q single point mutation in human Fcγ portion" (antibody, V domains shown) VH: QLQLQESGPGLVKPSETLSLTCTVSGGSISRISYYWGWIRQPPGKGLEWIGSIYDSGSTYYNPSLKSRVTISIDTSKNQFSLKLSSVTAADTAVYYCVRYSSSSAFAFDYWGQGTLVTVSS VL: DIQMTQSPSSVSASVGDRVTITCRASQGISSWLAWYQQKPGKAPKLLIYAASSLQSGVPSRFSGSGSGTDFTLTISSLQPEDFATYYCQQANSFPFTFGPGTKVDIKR
B16F10.9 MFI: 3688

API: the following record is the query input.
Exam item: Reported B16F10.9 MFI, molecule H1H21231N-N297Q: modified version of "21231N (H1H21231N-N297Q) anti-MSR1 antibodies" with "a N297Q single point mutation" (antibody, V domains shown) VH: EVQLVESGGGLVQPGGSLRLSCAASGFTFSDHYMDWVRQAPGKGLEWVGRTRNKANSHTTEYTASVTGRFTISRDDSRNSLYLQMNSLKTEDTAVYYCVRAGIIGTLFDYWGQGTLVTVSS VL: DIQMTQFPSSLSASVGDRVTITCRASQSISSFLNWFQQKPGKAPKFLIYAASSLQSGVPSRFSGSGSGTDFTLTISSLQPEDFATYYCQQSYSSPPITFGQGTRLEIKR : ____
Marked response: 3374
